Test system: Colo205
test_method_notes: Cell Titer Glo proliferation assay
Assay type: cell-based
details: Homo sapiens, COLO 205, read-out: EC50 in culture in vitro
pEC50: −log10 of the molar value.

{"columns": ["molecule", "pEC50"],
 "data": [
  ["C[C@]1(O)C[C@@H](c2nc(-c3ccc4ccc(-c5ccccc5)nc4c3)c3c(N)nccn32)C1", "> 6.00"]
]}

====

System: SKNAS
test_method_notes: Cell Titer Glo proliferation assay
Assay type: cell-based
details: Homo sapiens, SK-N-AS, read-out: EC50 in culture in vitro
pEC50: −log10 of the molar value.
parameter: pEC50

{"columns": ["molecule", "parameter", "reported_result"],
 "data": [
  ["C[C@]1(O)C[C@@H](c2nc(-c3ccc4ccc(-c5ccccc5)nc4c3)c3c(N)nccn32)C1 [OSI-906]", "pEC50", "> 6.00"]
]}

Data origin, for the record: patent US20110217309A1
